The origin of these recorded values is patent US20220402948A1.

# Test system: A431
# ASSAY_REMARKS: A431 cell proliferation assay (CellTiter Glo, 72 hours)
# Type: cell-based
# SETUP_CONDITIONS: Homo sapiens, A-431, 72 h, cell proliferation, A431, 72 hours, Table 2; read-out: A431 IC50
# Description: Cell line: Ba/F3 cells with EGFR Δ19del/T790M/C797S mutation gene stably overexpressed named Ba/F3-Δ119del/T90M/C797S, and A431 and Ba/F3-EGFR wild-type cell line. RPMI 1640 and 10% FBS and 1% PS; DMEM and 10% FBS and 1% PS. […] c) Read luminous signal value with PerkinElmer reader, […] The data were analyzed by GraphPad Prism 6.0 software to obtain the fitting curve of compound activity. […]
Please note: IC50 exactly at 2000 nM is condition not met. Only values below 2000 nM get condition met.

| COMPOUND | CATEGORY_LABEL |
| --- | --- |
| COc1cnn(-c2ccc(Nc3nc(Nc4cc(C)c(N5CCN(C6CCCC6)CC5)cc4OC)ncc3Br)c(P(C)(C)=O)c2)c1 [Compound K-089] | condition not met |
| CCc1cc(Nc2ncc(Br)c(Nc3ccc(-c4cnc(C)cn4)cc3P(C)(C)=O)n2)c(OC)cc1N1CCC(N2CCN(C)CC2)CC1 [Compound 80] | condition not met |
| CCc1cc(Nc2ncc(Br)c(Nc3ccc(-c4ncccn4)cc3P(C)(C)=O)n2)c(OC)cc1N1CCC(N2CCN(C)CC2)CC1 [Compound 26] | condition met |
| COc1cc(Nc2ncc(Br)c(Nc3ccc(-c4cnn(C)n4)c(F)c3P(C)(C)=O)n2)c(C)cc1N1CCC(N2CCN(C)CC2)CC1 [Compound K-012] | condition not met |
| CCc1cc(Nc2ncc(Cl)c(Nc3ccc(-c4cnc(OC)nc4)cc3P(C)(C)=O)n2)c(OC)cc1N1CCC(N2CCN(C)CC2)CC1 [Compound 25] | condition met |
| COc1cnn(-c2ccc(Nc3nc(Nc4cc(OC)c(N5CCN(C)CC5)cc4C)ncc3Br)c(P(C)(C)=O)c2)c1 [Compound K-028] | condition met |
